B1: HDV Ribozyme (parent)
chain: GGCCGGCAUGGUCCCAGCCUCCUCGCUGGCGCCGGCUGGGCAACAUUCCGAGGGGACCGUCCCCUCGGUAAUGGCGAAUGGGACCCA

variants of: B1; assay: self-cleavage, relative activity (ratio to wild type); higher = more cleavage; co-transcriptional
Provide the reported self-cleavage of each item.

Item under review: A43G C57U . Reported self-cleavage?
0.974

Would you kindly share the measured self-cleavage for C21A U27C ?
0.0519

Returns the measured self-cleavage for the input variant. Input: C4A G35C
0.086

Name the recorded self-cleavage for C4U G81A .
0.136

Look at this variant and give its reported self-cleavage. C26A G34A
0.486

What self-cleavage value was documented for this variant, C3U G35U ?
0.649

For the variant shown here, C7A G55A , give the reported self-cleavage.
0.627

Request the reported self-cleavage associated with C19A C22A
0.112

What value of self-cleavage has been recorded for this entry: C66U G67C
1.16

# input variant: G1C G38C ; wanted: its self-cleavage
0

For the variant C32G U60G , what self-cleavage is on record?
0.196

Bench note: what self-cleavage did A8C A16G show?
0.831

Item C30G C61A has what recorded self-cleavage?
0.0252

Name the recorded self-cleavage for C3G G73C .
0.272

Sample C21A A87U — what was its self-cleavage?
0.0915

Item under review: C41U G80C . Reported self-cleavage?
0.188

Dear colleague, I am looking for the recorded self-cleavage of the following variant: A43G C86A
0.712

Given the variant G38U G81A , what is its reported self-cleavage?
0.128

Quick one: self-cleavage for G17U C18G ?
0.095

Any idea what self-cleavage was measured for C3A U65A ?
0.641

Any idea what self-cleavage was measured for G73A G81U ?
0.18

What does the record list as self-cleavage for G31A C85G ?
0.367

Which self-cleavage is listed for C32A U79C ?
0.0733

Tell me the measured self-cleavage of A56C C66G , please.
0.99

Could you tell me which self-cleavage is on file for G34A G59C ?
0.225

Need self-cleavage, item A16G G52A
0.975

Fill in: self-cleavage of C13U C19A is ___
0.138

I am curious: what self-cleavage value has been reported for A16C C66G ?
0.554

Request the reported self-cleavage associated with G40A A70C
0.849

Quick one: self-cleavage of C36G G53C ?
0.158

Recorded self-cleavage for C14G C44U , please?
0.208

Given U46G C62G , state its recorded self-cleavage.
0.0755

Could you share which self-cleavage value was measured for A16C C75G ?
0.268

Using the record for G1A G11C , report its self-cleavage.
0.172

Which self-cleavage is listed for U23G A87C ?
0.799

Which self-cleavage value belongs to C64A A83G ?
0.857

I have this variant here, C19U A83C , and I need its recorded self-cleavage.
0.217

Any idea what self-cleavage was measured for G39U C75U ?
0.0923

Request the reported self-cleavage associated with A42C G52C
0.359

What value of self-cleavage has been reported for the following variant? C41U U46G
1.02

Field request: self-cleavage | item: A8U U46G
0.604

Query (variant): G73U C84U ; field requested: self-cleavage
0.256

Query: self-cleavage; subject: U20C C36G
0.111

Which measured self-cleavage value corresponds to C4G U69C ?
0.308
